targetDesc: catalytic domain (JH1, amino acids 808-1132) of human JAK2 (Homo sapiens, UniProt O60674)
Sequence (O60674 808-1132 limits assumed): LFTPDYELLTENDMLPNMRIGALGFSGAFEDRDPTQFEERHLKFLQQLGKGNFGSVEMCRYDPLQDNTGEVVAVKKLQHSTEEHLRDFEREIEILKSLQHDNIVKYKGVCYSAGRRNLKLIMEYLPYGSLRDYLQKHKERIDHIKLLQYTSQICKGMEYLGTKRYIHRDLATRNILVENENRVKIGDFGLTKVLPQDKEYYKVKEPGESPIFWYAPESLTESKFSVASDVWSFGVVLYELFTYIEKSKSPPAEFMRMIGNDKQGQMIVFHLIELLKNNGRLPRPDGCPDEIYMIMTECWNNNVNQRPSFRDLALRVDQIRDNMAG
protocolNotes: JAK2 HTRF Enzyme Activity Assay
condition: ATP 30 µM, 60 minutes at 25° C.; read-out: V617F ENZ 30 UM
pIC50: −log10 of the molar value.
Consider the following compounds and their measured pIC50 readings.

| compound | targetDesc | pIC50 |
| --- | --- | --- |
| C#CCOC(=O)N[C@@H]1CC[C@@H](n2c(=O)n(C)c3cnc(Nc4cc(NC(=O)OC5CCC5)cc(-c5cnn(C)c5)c4)cc32)C1 | catalytic domain (JH1, amino acids 808-1132) of human JAK2 (Homo sapiens, UniProt O60674) | < 6.00 |
| [2H]C([2H])([2H])n1c(=O)n([C@@H]2CC[C@@H](NC(=O)OC)C2)c2cc(Nc3cc(C(=O)N4CCOCC4)cc(-c4ccc(C(F)F)s4)n3)ncc21 | catalytic domain (JH1, amino acids 808-1132) of human JAK2 (Homo sapiens, UniProt O60674) | 6.00 to 6.30 |
| [2H]C([2H])([2H])n1c(=O)n([C@@H]2CC[C@](C)(NC(=O)C3CC3)C2)c2cc(Nc3ccc4nn([C@H]5C[C@@H](O)C5)c(-c5cnn(C(F)(F)F)c5)c4n3)ncc21 | catalytic domain (JH1, amino acids 808-1132) of human JAK2 (Homo sapiens, UniProt O60674) | < 6.00 |
| [2H]C([2H])([2H])n1c(=O)n([C@@H]2CC[C@@H](NC(=O)OC)C2)c2cc(Nc3cc(CN4CCOCC4)cc(-c4ccc5c(c4)OCCO5)n3)ncc21 | catalytic domain (JH1, amino acids 808-1132) of human JAK2 (Homo sapiens, UniProt O60674) | < 6.00 |
| COC(=O)N[C@@H]1CC[C@@H](n2c(=O)n(C)c3cnc(Nc4cc(NC(=O)C5CCC5)cc(C5CCOCC5)c4)cc32)C1 | catalytic domain (JH1, amino acids 808-1132) of human JAK2 (Homo sapiens, UniProt O60674) | < 6.00 |

Consider the compound `[2H]C([2H])([2H])n1c(=O)n([C@@H]2CC[C@@H](NC(=O)OC)C2)c2cc(Nc3cc(C(=O)N4CCOCC4)c4cc(C)cc(C(F)(F)F)c4n3)ncc21` . State its measured pIC50.
6.00 to 6.30

Supply recorded pIC50 for `[2H]C([2H])([2H])n1c(=O)n([C@@H]2CC[C@@H](NC(=O)OC)C2)c2cc(Nc3cc(C)cc(-c4ncc(C(C)(C)O)s4)n3)ncc21` here.
< 6.00

Output measured pIC50 for this item: [2H]C1(NC(=O)OC)CC[C@@H](n2c(=O)n(C([2H])([2H])[2H])c3cnc(Nc4ccc5c(n4)c(-c4cnn(C(F)(F)F)c4)cn5C4CCOCC4)cc32)C1 (some centres unmarked)
< 6.00

Note down pIC50 recorded for `Cn1cc(-c2cc(NC(=O)OC3CCC3)cc(Nc3cc4c(cn3)n(C)c(=O)n4[C@@H]3CC[C@@H](NC(=O)OC4CCC4)C3)c2)cn1`
< 6.00

Please give the documented pIC50 of `[2H]C([2H])([2H])n1c(=O)n([C@]2([2H])CC[C@@H](NC(=O)OC)C2)c2cc(Nc3cc(C(C)(C)O)cc(-c4ncc(C(F)(F)F)s4)n3)ncc21`
< 6.00

Specify measured pIC50 for `[2H]C([2H])([2H])NC(=O)C12CCC(n3c(=O)n(C([2H])([2H])[2H])c4cnc(Nc5cc(C(C)(C)O)cc(-c6ncc(C(F)(F)F)s6)n5)cc43)(CC1)CC2` .
< 6.00

====

targetDesc: pseudo-kinase domain (JH2, amino-acids 536-812) of human V617F mutant JAK2 (Homo sapiens, UniProt O60674, F794H/V617F/W659A/W777A)
Construct: pseudo-kinase domain (JH2, amino-acids 536-812 with 3 surface mutations W659A, W777A, F794H); His (C)
Sequence (O60674 536-812 V617F/W659A/W777A/F794H): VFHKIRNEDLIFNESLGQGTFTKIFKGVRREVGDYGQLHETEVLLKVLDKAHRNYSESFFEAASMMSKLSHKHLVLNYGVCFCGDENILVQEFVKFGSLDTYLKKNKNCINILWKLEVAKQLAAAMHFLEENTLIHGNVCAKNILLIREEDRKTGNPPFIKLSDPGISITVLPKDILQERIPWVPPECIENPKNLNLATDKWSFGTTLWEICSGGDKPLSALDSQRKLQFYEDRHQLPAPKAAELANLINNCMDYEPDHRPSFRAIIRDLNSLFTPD
protocolNotes: JAK2 LanthaScreen JH2-V617F Binding Assay
condition: JAK2 JH2-V617F 0.26 nM, 50 nM tracer, 1 hour at 25° C.; read-out: JH2 BIND V617F
Known IC50 of a selection of molecules

| molecule | val |
| --- | --- |
| [2H]C([2H])([2H])n1c(=O)n([C@@H]2CC[C@@H](NC(=O)OC)C2)c2cc(Nc3cc(C(=O)N4CCCC(F)(F)C4)c4cccc(C(F)(F)F)c4n3)ncc21 [Example 16] | ≤ 10 nM |
| [2H]C([2H])([2H])n1c(=O)n([C@@H]2CC[C@@H](NC(=O)OC)C2)c2cc(Nc3ccc4ncc(C5CC5)n4n3)ncc21 [Example 54] | ≤ 10 nM |

Report IC50, nothing else, for this molecule: [2H]C([2H])([2H])n1c(=O)n([C@@H]2CC[C@@]([2H])(NC(=O)OC)C2)c2cc(Nc3cc(-c4cnccc4C(F)(F)F)cc(-c4ncc(C(C)(C)O)s4)n3)ncc21 [Example 164]
≤ 10 nM

====

targetDesc: catalytic domain (JH1, amino acids 808-1132) of human JAK2 (Homo sapiens)
protocolNotes: JAK2 HTRF Enzyme Activity Assay
Type: biochemical
condition: ATP 30 µM, 60 minutes at 25° C.; read-out: V617F ENZ 30 UM
pIC50: −log10 of the molar value.
quantityName: pIC50

Reference set (5 entries):
| chemicalString | quantityName | val |
| --- | --- | --- |
| COC(=O)N[C@@H]1CC[C@@H](n2c(=O)n(C)c3cnc(Nc4cccc(-c5ccc6c(c5)OCCN6C)n4)cc32)C1 | pIC50 | < 6.00 |
| [2H]C([2H])([2H])n1c(=O)n([C@@H]2CC[C@@H](NC(=O)OC)C2)c2cc(Nc3cc(C(C)(C)O)cc(-c4ncc(C(C)(C)O)s4)n3)ncc21 | pIC50 | < 6.00 |
| [2H]C([2H])([2H])n1c(=O)n([C@@H]2CC[C@@H](NC(=O)OC)C2)c2cc(Nc3cc(C(=O)N4CC5(CCN5C)C4)c4cccc(C(F)(F)F)c4n3)ncc21 | pIC50 | 6.00 to 6.30 |
| CCOC(=O)N[C@@H]1CC[C@@H](n2c(=O)n(C)c3cnc(Nc4cc(NC(=O)OC5CCC5)cc(-c5cnn(C)c5)c4)cc32)C1 | pIC50 | < 6.00 |
| COC(=O)N[C@@H]1CC[C@@H](n2c(=O)n(C)c3cnc(Nc4cc(-c5cnn(C)c5)cc(-c5cccc(C#N)c5)n4)cc32)C1 | pIC50 | < 6.00 |

// Input: `[2H]C([2H])([2H])n1c(=O)n([C@H]2CC[C@@](C)(NC(=O)C3CC3)CC2)c2cc(Nc3cc(C(=O)N4CCOCC4)c4nn(C)c(-c5cnn(C(F)(F)F)c5)c4n3)ncc21` . Output its pIC50 only.
< 6.00

====

targetDesc: pseudo-kinase domain (JH2, amino-acids 536-812) of human Wild Type JAK2 (Homo sapiens, UniProt O60674, F794H/W659A/W777A)
Construct: pseudo-kinase domain (JH2, amino-acids 536-812 with 3 surface mutations W659A, W777A, F794H); His (C)
Sequence (O60674 536-812 W659A/W777A/F794H): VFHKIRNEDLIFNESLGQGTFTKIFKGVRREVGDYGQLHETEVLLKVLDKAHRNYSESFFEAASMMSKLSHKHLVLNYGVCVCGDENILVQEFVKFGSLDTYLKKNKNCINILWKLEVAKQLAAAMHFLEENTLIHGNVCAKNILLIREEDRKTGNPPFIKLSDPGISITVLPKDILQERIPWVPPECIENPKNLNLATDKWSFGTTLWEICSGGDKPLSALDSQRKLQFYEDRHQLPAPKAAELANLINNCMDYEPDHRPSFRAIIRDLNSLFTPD
protocolNotes: JAK2 LanthaScreen JH2-WT Binding Assay
condition: JAK2 JH2-WT 0.145 nM, 50 nM tracer, 1 hour at 25° C.; read-out: JH2 BIND WT
Method: Example B. JAK2 LanthaScreen JH2-WT Binding Assay JAK2 JH2-WT binding assay utilizes pseudo-kinase domain (JH2, amino-acids 536-812 with 3 surface mutations W659A, W777A, F794H) of human Wild Type JAK2 expressed as C-terminal His-Avi-tagged, biotinylated protein in a baculovirus expression system (BPS Bioscience, Catalog #79463). […] After incubation for 1 hour at 25° C., LanthaScreen signals were read on a PHERAstar FS plate reader (BMG LABTECH). […]
quantityName: IC50

Answered examples (2):
| compound | IC50 |
| --- | --- |
| [2H]C([2H])([2H])n1c(=O)n([C@@H]2CC[C@](C)(NC(=O)C3CC3)C2)c2cc(Nc3ccc4c(n3)c(-c3cnn(C(F)(F)F)c3)nn4CC(C)(C)O)ncc21 | ≤ 10 nM |
| [2H]C([2H])([2H])n1c(=O)n([C@@H]2CC[C@@H](NC(=O)OC)C2)c2cc(Nc3cc(C)cc(-c4ncc(C(C)(C)O)s4)n3)ncc21 | ≤ 10 nM |

Please give measured IC50 of the following entry: `COC(=O)Nc1cc(Nc2cc3c(cn2)n(C)c(=O)n3[C@@H]2CC[C@@H](NC(=O)OC)C2)cc(-c2cnn(C)c2)c1`
≤ 10 nM

Give the measured IC50 for `[2H]C([2H])([2H])n1c(=O)n([C@@H]2CC[C@@](C)(NC(=O)C3CC3)C2)c2cc(Nc3cc(C(=O)N4CCOCC4)c4cccc(C(F)(F)F)c4n3)ncc21`
≤ 10 nM

Please list IC50 recorded for the compound `COCCOC(=O)N[C@@H]1CC[C@@H](n2c(=O)n(C)c3cnc(Nc4cc(NC(=O)OC5CCC5)cc(-c5cnn(C)c5)c4)cc32)C1`
10 to 100 nM
